Assignment: determine reported GI50 for the given molecules.
- Test system: OVCAR-5
- testName: NCI tumour cell line growth inhibition, 48 h
Calls of active or inactive are those of the source. Cut-off read from the data, not from the text of the source: active = GI50 up to about 1.1 µM and inactive = higher.

Record summary for COc1ccc(N(CN2C(=O)CCC2C(=O)O)C(C)=O)cc1 (stereo not drawn) : reported GI50 = > 100 µM (inactive)

Record summary for CCC(CCCC[C@H]1CC[C@@H]2CC(=O)C[C@H]12)OC (stereo partly drawn) : reported GI50 = > 100 µM (inactive)

Record summary for CCCC(=O)[O-].[Na+] [SODIUM BUTYRATE] : reported GI50 = 7980 µM (inactive)

* * *

- Test system: ACHN
- testName: NCI tumour cell line growth inhibition, 48 h
Active and inactive are the calls of the source. Cut-off read from the data, not from the text of the source: active = GI50 up to about 1.1 µM and inactive = higher.
Response enum: active, inactive

Incoming: Could you please tell me the result logged for NC(=O)C[C@H](NC(=O)C1(NC(=O)[C@H](Cc2ccc(CP(=O)(O)O)cc2)NC(=O)C(=O)O)CCCCC1)C(=O)NCCCc1cccc2ccccc12 in this assay?
Outgoing: inactive

Incoming: Could you please tell me the result logged for CC(C)N(CCCNc1c2ccccc2nc2cccc([N+](=O)[O-])c12)C(C)C in this assay?
Outgoing: active

Incoming: Could you please tell me the result logged for Cn1c(=O)c2c(ncn2CCNC(CO)C(O)c2ccc([N+](=O)[O-])cc2)n(C)c1=O (stereo not given) in this assay?
Outgoing: inactive

Incoming: Could you please tell me the result logged for O=C(O)Cc1ccc(Oc2nc3ccccc3nc2C(=O)O)cc1 in this assay?
Outgoing: inactive

Incoming: Could you please tell me the result logged for COc1ccc(C2=C(Cl)c3cc(OC)c(OC)cc3C2=O)cc1OC in this assay?
Outgoing: inactive

Incoming: Could you please tell me the result logged for Cc1ccc(NC(=O)C(=O)C(C(=O)c2ccc3ccccc3c2)C2OC(=O)c3ccccc32)cc1C (stereo not given) in this assay?
Outgoing: inactive

Incoming: Could you please tell me the result logged for CC(C)(SCc1ccccc1)C(N)C(=O)O (stereo not given) in this assay?
Outgoing: inactive

Incoming: Could you please tell me the result logged for COCOc1ccc(C(=O)Oc2cccc3c2OC(C)(C)O3)c(OCOC)c1 in this assay?
Outgoing: inactive

Incoming: Could you please tell me the result logged for N#C[BH2-][n+]1ccc(C(=O)NNC(c2ccccc2)C(F)(F)F)cc1 (stereo not given) in this assay?
Outgoing: inactive

Incoming: Could you please tell me the result logged for CN(C)CCC1(C2=CCCC2)CC/C(=C\c2ccc3c(c2)OCO3)C1=O (stereo not given) in this assay?
Outgoing: inactive

Incoming: Could you please tell me the result logged for N#CN1CCC=C(c2cc3ccccc3[nH]2)C1 in this assay?
Outgoing: inactive

Incoming: Could you please tell me the result logged for COc1ccccc1/C=C1\SC(=S)N(/C=C2\C(=O)Oc3ccccc3C2=O)C1=O in this assay?
Outgoing: inactive

Incoming: Could you please tell me the result logged for O=C(/N=C(/Nc1ccccc1)SCS/C(=N\C(=O)c1ccco1)Nc1ccccc1)c1ccco1 in this assay?
Outgoing: inactive

Incoming: Could you please tell me the result logged for CCOC(=O)C(NNS(=O)(=O)c1ccc(C)cc1)S(=O)(=O)C(F)(F)C(F)(F)C(F)(F)C(F)(F)F (stereo not given) in this assay?
Outgoing: inactive

Incoming: Could you please tell me the result logged for c1ccc(-c2nc3ccccc3n3nnnc23)cc1 in this assay?
Outgoing: inactive

Incoming: Could you please tell me the result logged for COc1ccc(/C=N/n2c(Cc3ccccc3)n[nH]c2=O)c(OC)c1 in this assay?
Outgoing: inactive

Incoming: Could you please tell me the result logged for CC1(C)C(=O)C(C)(C)C1=NNC(N)=S in this assay?
Outgoing: inactive

Incoming: Could you please tell me the result logged for COC(=O)C1(O)c2ccccc2N=C2C(=O)c3ccccc3N21 (stereo not given) [METHYLISATOID] in this assay?
Outgoing: inactive

Incoming: Could you please tell me the result logged for O=C1/C(=C/c2cccc([N+](=O)[O-])c2)COc2ccccc21 in this assay?
Outgoing: inactive

Incoming: Could you please tell me the result logged for O=C(Cn1cc(-c2ccccc2)nn1)NC1CCCC1 in this assay?
Outgoing: inactive

Incoming: Could you please tell me the result logged for [N-]=[N+]=NCC1OCC(O)C(OCc2ccccc2)C1OCc1ccccc1 (stereo not given) in this assay?
Outgoing: inactive

Incoming: Could you please tell me the result logged for COc1cccc(NC(=O)N/C(=C/c2ccc(N(CCC#N)CCC#N)cc2)NC(=O)c2cc([N+](=O)[O-])ccc2Cl)c1 in this assay?
Outgoing: inactive

Incoming: Could you please tell me the result logged for CCCCCCCCCCCCCCNCC(OC)OC in this assay?
Outgoing: inactive

Incoming: Could you please tell me the result logged for COc1ccc2nc3cccc([N+](=O)[O-])c3c(NCCN(C)C)c2c1 in this assay?
Outgoing: active

Incoming: Could you please tell me the result logged for C[C@]12c3c4cc(NC(=O)C(=O)NCc5ccc(-c6ccccn6)nc5)cc3Oc3cc(NC(=O)C(=O)NCc5ccc(-c6ccccn6)nc5)cc(c31)OC1C=C(NC(=O)C(=O)NCc3ccc(-c5ccccn5)nc3)C=C(O4)C12 (stereo not given in full) in this assay?
Outgoing: inactive

Incoming: Could you please tell me the result logged for CCOC(=O)c1c(C)n(-c2ccc(Cl)cc2)c2c1cc(O)c1[nH]c3c(c12)CCCC3 in this assay?
Outgoing: inactive

Incoming: Could you please tell me the result logged for Oc1ccc2ccccc2c1-c1c(Nc2ccccc2)ccc2ccccc12 in this assay?
Outgoing: inactive

Incoming: Could you please tell me the result logged for COc1ccc(N(CN2C(=O)CCC2C(=O)O)C(C)=O)cc1 (stereo not given) in this assay?
Outgoing: inactive

Incoming: Could you please tell me the result logged for Cc1nc2c(n1Cc1ccc(F)cc1)C(=O)c1ccccc1C2=O in this assay?
Outgoing: inactive

Incoming: Could you please tell me the result logged for C=C(C)C(=O)OC1C/C(CO)=C\C(O)C/C(C)=C/C2OC(=O)C(=C)C21 (stereo not given) in this assay?
Outgoing: inactive

* * *

- Test system: RPMI-8226
- testName: NCI tumour cell line growth inhibition, 48 h
The source made the active and inactive calls. Cut-off read from the data, not from the text of the source: active = GI50 up to about 1.1 µM and inactive = higher. Where a SMILES comes first, the peptide text is derived from it. The star is where a group is joined. Boc = CC(C)(C)OC(=O)*
Response enum: active, inactive

Incoming: Could you please tell me the result logged for CC(=O)N(O)Cc1ccccc1 in this assay?
Outgoing: inactive

Incoming: Could you please tell me the result logged for CC1(C)S[C@@H]2[C@H](N3C(=O)c4ccccc4C3=O)CN2[C@H]1NC(=O)N[C@@H]1N2C[C@@H](N3C(=O)c4ccccc4C3=O)[C@H]2SC1(C)C in this assay?
Outgoing: inactive

Incoming: Could you please tell me the result logged for COc1cc(C)c2c(c1C)OC(=O)c1c(C)c(Cl)c(O)c(C=O)c1O2 in this assay?
Outgoing: inactive

Incoming: Could you please tell me the result logged for C=CCO[C@]1(CC=C)C(=O)C(=O)OC1C1COC(C)(C)O1 (stereo not given in full) in this assay?
Outgoing: inactive

Incoming: Could you please tell me the result logged for O=Cc1ccc2c(c1)CC1(C2)Cc2ccc(C=O)cc2C1 in this assay?
Outgoing: active

Incoming: Could you please tell me the result logged for CC1(C)C(=O)C(C)(C)C1=NNC(N)=S in this assay?
Outgoing: inactive

Incoming: Could you please tell me the result logged for C=CCNC(=O)N(CCCCC(NC(C)=O)C(=O)NCc1ccccc1)Cc1ccccc1 (stereo not given) in this assay?
Outgoing: inactive

Incoming: Could you please tell me the result logged for NC1=Nc2ccccc2Sc2nccn21 in this assay?
Outgoing: inactive

Incoming: Could you please tell me the result logged for Cc1cccc(C)c1NC(=O)CCCC(=O)CC(=O)/C=C/c1ccccc1 in this assay?
Outgoing: inactive

Incoming: Could you please tell me the result logged for O=c1c2ccccc2nc2n1-c1ccccc1SC2 in this assay?
Outgoing: inactive

Incoming: Could you please tell me the result logged for COCCOCCOCCC(=O)NC1CC2CCC1(C)C2(C)C (stereo not given) in this assay?
Outgoing: inactive

Incoming: Could you please tell me the result logged for CC(C)CC(N)C(=O)Nc1ccc2ccccc2c1 (stereo not given) in this assay?
Outgoing: inactive

Incoming: Could you please tell me the result logged for COc1ccc(C(=O)N2CCN(c3ccc4c(c3)OCC(=O)N4)CC2)cc1 in this assay?
Outgoing: inactive

Incoming: Could you please tell me the result logged for O=c1[nH]nc(-c2ccccc2)n1/N=C/c1cccnc1 in this assay?
Outgoing: inactive

Incoming: Could you please tell me the result logged for O=C(O)c1c(O)c2cc(Br)ccc2oc1=O in this assay?
Outgoing: inactive

Incoming: Could you please tell me the result logged for COc1cc2c(cc1OC)C1Cc3sccc3CN1CC2 (stereo not given) in this assay?
Outgoing: inactive

Incoming: Could you please tell me the result logged for C#CCC[C@@H]1O[C@@]1(C)CC/C=C(\C)CC/C=C/C=O in this assay?
Outgoing: inactive

Incoming: Could you please tell me the result logged for O=[N+]([O-])c1ccc2c(Nc3ccccc3-c3ccccc3Nc3c4ccccc4nc4cc([N+](=O)[O-])ccc34)c3ccccc3nc2c1 in this assay?
Outgoing: inactive

Incoming: Could you please tell me the result logged for COC(=O)C(Cc1c[nH]c2ccccc12)NC(=O)C(Cc1c[nH]c2ccccc12)NC(=O)C(Cc1c[nH]c2ccccc12)NC(=O)OC(C)(C)C (stereo not drawn) (Boc-Trp-Trp-Trp-OMe; configuration not given here) in this assay?
Outgoing: inactive

Incoming: Could you please tell me the result logged for N#C/C(=C\c1ccc(Cl)cc1)c1nc(-c2cc3ccccc3oc2=O)cs1 in this assay?
Outgoing: inactive
